# credit: ChEMBL document CHEMBL2010777

- subjectOfTest: Class 1 phosphodiesterase PDEB1 (Trypanosoma brucei)
- Sequence (whole entry): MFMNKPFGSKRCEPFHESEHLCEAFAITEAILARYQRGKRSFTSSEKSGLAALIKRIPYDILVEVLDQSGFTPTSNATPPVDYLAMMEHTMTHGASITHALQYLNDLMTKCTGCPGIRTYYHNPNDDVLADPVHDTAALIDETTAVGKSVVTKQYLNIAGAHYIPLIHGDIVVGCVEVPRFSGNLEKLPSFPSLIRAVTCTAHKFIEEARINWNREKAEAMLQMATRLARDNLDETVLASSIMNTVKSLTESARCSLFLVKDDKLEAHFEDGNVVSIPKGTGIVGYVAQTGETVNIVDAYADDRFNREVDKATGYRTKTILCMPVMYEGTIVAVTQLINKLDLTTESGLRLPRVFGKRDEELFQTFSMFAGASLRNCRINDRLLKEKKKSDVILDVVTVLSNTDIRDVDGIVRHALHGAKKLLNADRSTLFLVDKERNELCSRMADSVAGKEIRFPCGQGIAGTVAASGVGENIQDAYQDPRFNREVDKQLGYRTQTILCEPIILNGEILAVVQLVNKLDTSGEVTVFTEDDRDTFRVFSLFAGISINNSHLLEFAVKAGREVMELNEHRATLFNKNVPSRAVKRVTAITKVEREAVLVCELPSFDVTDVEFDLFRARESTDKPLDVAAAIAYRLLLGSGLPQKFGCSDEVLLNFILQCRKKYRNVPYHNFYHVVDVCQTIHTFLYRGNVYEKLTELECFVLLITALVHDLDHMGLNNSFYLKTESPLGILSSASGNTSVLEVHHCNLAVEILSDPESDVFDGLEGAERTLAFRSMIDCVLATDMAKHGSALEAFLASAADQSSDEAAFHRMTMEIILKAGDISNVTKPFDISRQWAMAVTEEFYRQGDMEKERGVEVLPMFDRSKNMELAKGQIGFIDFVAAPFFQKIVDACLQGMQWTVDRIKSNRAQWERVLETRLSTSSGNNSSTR
- procedureDetails: Inhibition of Trypanosoma brucei PDEB1 using cAMP as substrate at 10 uM preincubated for 10 mins prior substrate addition by spectrophotometry
readoutKind: inhibition (%)

See these solved cases before continuing.
* CN1CC(=O)N2[C@H](c3ccc4c(c3)OCO4)c3[nH]c4ccc(Br)cc4c3C[C@@H]2C1=O | 11.8
* CN1CC(=O)N2[C@@H](c3ccc4c(c3)OCO4)c3c(c4ccccc4n3C)C[C@@H]2C1=O | 19.7
* CN1CC(=O)N2[C@@H](c3ccc4c(c3)OCO4)c3[nH]c4ccc(Br)cc4c3C[C@@H]2C1=O | 11.6
* CN1CC(=O)N2C(CNC(=O)OCc3ccccc3)c3[nH]c4ccccc4c3C[C@@H]2C1=O (stereo partly specified) | 21.2
* Cc1n[nH]cc1C(=O)NCC1c2[nH]c3ccccc3c2C[C@@H]2C(=O)N(C)CC(=O)N12 (stereo partly specified) | 0

a = CN1CC(=O)N2C(CNCc3cccnc3)c3[nH]c4ccccc4c3C[C@@H]2C1=O (stereo partly specified)
b = CN1CC(=O)N2[C@@H](c3ccc4c(c3)OCO4)c3[nH]c4ccccc4c3C[C@@H]2C1=O
Lab note: check whether a or b shows the higher recorded inhibition. Please reply using the label of the selected record.
b

A = CN1CC(=O)N2[C@H](c3ccc4c(c3)OCO4)c3c(c4ccccc4n3C)C[C@@H]2C1=O
B = CC(=O)NCC1c2[nH]c3ccccc3c2C[C@@H]2C(=O)N(C)CC(=O)N12 (stereo partly specified)
C = CN1CC(=O)N2[C@@H](c3ccc4c(c3)OCO4)c3[nH]c4ccc(-c5ccn[nH]5)cc4c3C[C@@H]2C1=O
// smallest inhibition at index 0, largest at the end Answer by listing the labels in the requested order.
B, A, C

----------
- subjectOfTest: Class 1 phosphodiesterase PDEB1 (Trypanosoma brucei) (UniProt Q8WQX9)
- procedureDetails: Inhibition of Trypanosoma brucei PDEB1 using cAMP as substrate at 100 uM preincubated for 10 mins prior substrate addition by spectrophotometry
readoutKind: inhibition (%)

* NC(=O)[C@H]1Cc2c([nH]c3ccccc23)[C@H](c2ccc3c(c2)OCO3)N1 | 0
* CC(=O)N1CCc2c([nH]c3ccccc23)C1c1ccc2c(c1)OCO2 (stereo unspecified) | 17

a = CN1CC(=O)N2[C@H](c3ccc4c(c3)OCO4)c3[nH]c4ccccc4c3C[C@@H]2C1=O
b = CC1NC(C(N)=O)Cc2c1[nH]c1ccccc21 (stereo unspecified)
c = NC(=O)[C@H]1Cc2c([nH]c3ccccc23)[C@@H](c2ccc3c(c2)OCO3)N1
Arrange by inhibition, high to low. Answer by listing the labels in the requested order.
c, b, a
(c: 19.5%, b: 13.3%, a: 0%)
